Target: UP1 wt (human, UniProt P09651 1-196)
Sequence (P09651 1-196): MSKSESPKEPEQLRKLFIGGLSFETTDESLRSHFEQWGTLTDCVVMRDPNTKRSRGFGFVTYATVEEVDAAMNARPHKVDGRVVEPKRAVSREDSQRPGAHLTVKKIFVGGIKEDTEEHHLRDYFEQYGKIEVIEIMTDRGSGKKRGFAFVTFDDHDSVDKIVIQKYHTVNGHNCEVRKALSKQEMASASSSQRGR
Experiment: ITC; ITC: 20 mM Tris-HCl pH 7.5, 150 mM NaCl, 20 C; protein 160 uM in syringe, RNA 10 uM in cell
Conditions: protein: recombinant; tags: C-terminal His6; chain copies: 2; single strand; crystal has 2 antiparallel strands
attribute_measured: pKd
Kindly note that pKd refers to -log10 of the concentration in mol/L and answer with the value alone.

pKd recorded for this binder, UUAGGGUUAGGG (ssRNA) [TERRA (UUAGGG)2] , is 6.57

Values compiled from paper PMC12019227.
